test name: Cmax in ICR mouse at 10 mg/kg, po measured upto 24 hrs by LC-MS/MS analysis
Format: ADME, organism-based
experimental conditions: in vivo
reported endpoint: Cmax (ng/mL)

> print(dat)
                                  structure  quantitative.result
1  C=CC(=O)Nc1ccccc1-c1ccc(NC(=O)Cc2ccc(S(=O)(=O)CC)cc2)cc1Cl                  270

====

test name: AUClast in ICR mouse at 10 mg/kg, po measured upto 24 hrs by LC-MS/MS analysis
Type: ADME, organism-based
experimental conditions: in vivo
reported endpoint: AUC(0-t) at 24 h (ng·h/mL)

> print(dat)
                                  structure  reported.endpoint  quantitative.result
1  C=CC(=O)Nc1ccccc1-c1ccc(NC(=O)Cc2ccc(S(=O)(=O)CC)cc2)cc1Cl   AUC(0-t) at 24 h                  248
